The measured values listed here are drawn from paper PMC12169749.

Target: oligopeptidase B (OPB); Nagaimo protease
Construct: native, purified from tubers; monomer, 75 kDa by gel filtration, 81 kDa by reducing SDS-PAGE; internal tryptic peptide SAGGLLMGAVLNMR
Test: fluorometric AMC release, inhibitor titration
Assay type: biochemical, Dioscorea polystachya
Settings: 100 μM Bz-Arg-MCA, 50 mM Tris-HCl pH 8.0, 10 min preincubation at 23 °C, assay 37 °C; covalent
property-measured: IC50 (nM)
// units = nM; emit number, no label

Before answering, review these 2 worked examples.
Task: Fill blank: measured IC50 of the compound NCCc1ccc(S(=O)(=O)F)cc1 is ____.
Output: 700

Task: I would be grateful if you could share the reported IC50 for O=c1oc(Cl)c(Cl)c2ccccc12 .
Output: 30000

New cases:
Task: Recorded IC50 for Cc1ccc(S(=O)(=O)N[C@@H](CCCCN)C(=O)CCl)cc1 , please?
Output: 70

* * *

Tested on: oligopeptidase B (OPB); Nagaimo protease
Construct: native, purified from tubers; monomer, 75 kDa by gel filtration, 81 kDa by reducing SDS-PAGE; internal tryptic peptide SAGGLLMGAVLNMR
Assay: fluorometric AMC release, Lineweaver-Burk
Assay type: biochemical, Dioscorea polystachya
Details: Tris-HCl pH 8.0, 37 °C
Peptide text beside a SMILES is read from it. * marks the point of attachment. AMC = Cc1cc(=O)oc2cc(N*)ccc12; Cbz = O=C(OCc1ccccc1)*; Boc = CC(C)(C)OC(=O)*
Listed next: entries and their corresponding Km.
Provide the reading as a plain figure in µM.

Solved cases (2 shown):
Task: Which Km reading was recorded for the molecule Cc1cc(=O)oc2cc(NC(=O)[C@H](CCCNC(=N)N)NC(=O)[C@H](Cc3ccccc3)NC(=O)OCc3ccccc3)ccc12 [Z-Phe-Arg-MCA] (Cbz-Phe-Arg-{AMC}) ?
Output: 11

Task: Can you share its Km? I mean this molecule: Cc1cc(=O)oc2cc(NC(=O)[C@H](CCCCN)NC(=O)[C@H](CC(C)C)NC(=O)[C@@H](NC(=O)OC(C)(C)C)C(C)C)ccc12 [Boc-Val-Leu-Lys-MCA] (Boc-Val-Leu-Lys-{AMC})
Output: 10

New cases:
Task: If you can, please state the reported Km value of Cc1cc(=O)oc2cc(NC(=O)[C@H](CCCNC(=N)N)NC(=O)[C@H](CCCNC(=N)N)NC(=O)OCc3ccccc3)ccc12 [Z-Arg-Arg-MCA] (Cbz-Arg-Arg-{AMC}) .
Output: 10

Task: For the molecule Cc1cc(=O)oc2cc(NC(=O)[C@H](CCCNC(=N)N)NC(=O)c3ccccc3)ccc12 , what Km is on record?
Output: 10

* * *

Test system: oligopeptidase B (OPB); Nagaimo protease
Construct: native, purified from tubers; monomer, 75 kDa by gel filtration, 81 kDa by reducing SDS-PAGE; internal tryptic peptide SAGGLLMGAVLNMR
Experiment: fluorometric AMC release, Lineweaver-Burk
Type: biochemical, Dioscorea polystachya
Conditions: Tris-HCl pH 8.0, 37 °C
Peptide text beside a SMILES is read from it. * marks the point of attachment. AMC = Cc1cc(=O)oc2cc(N*)ccc12; Cbz = O=C(OCc1ccccc1)*
property-measured: Km (µM)
Numbers only; they are read as µM.

Below: 2 molecules and their reported Km.
Task: Look up Km for this molecule: Cc1cc(=O)oc2cc(NC(=O)[C@H](CCCNC(=N)N)NC(=O)[C@@H](NC(=O)[C@@H](NC(=O)OCc3ccccc3)C(C)C)C(C)C)ccc12 [Z-Val-Val-Arg-MCA] (Cbz-Val-Val-Arg-{AMC})
Output: 10

Task: Request the reported Km associated with Cc1cc(=O)oc2cc(NC(=O)[C@@H](N)CCCNC(=N)N)ccc12
Output: 17.9

// below: Km requested for another molecule
Task: # query: Km of entry Cc1cc(=O)oc2cc(NC(=O)[C@H](CCCNC(=N)N)NC(=O)[C@H](CC(C)C)NC(=O)OCc3ccccc3)ccc12
Output: 12.5
